Subject of test: HLA-B*08:01
Protocol details: IEDB peptide-MHC binding, purified MHC/competitive/fluorescence; filed as Kd, often an IC50 or EC50 that approximates it; bounds were set here for any values at or beyond the usual limits of such assays
Experimental parameters: source organism: Influenza A virus (A/X-31(H3N2))

>  <Sequence code>
LAKSVFNSL

>  <Unit annotation>
nM

>  <Kd>
726

$$$$

----------
Subject of test: HLA-B*15:01
Protocol details: IEDB peptide-MHC binding, purified MHC/direct/fluorescence; filed as Kd, often an IC50 or EC50 that approximates it; bounds were set here for any values at or beyond the usual limits of such assays
Experimental parameters: source organism: Mycobacterium tuberculosis C

>  <Sequence code>
EQFWCGIPY

>  <Subject of test>
HLA-B*15:01

>  <Unit annotation>
nM

>  <Kd>
78.8

$$$$
>  <Sequence code>
LLWYRRGTF

>  <Subject of test>
HLA-B*15:01

>  <Unit annotation>
nM

>  <Kd>
360

$$$$

Sourced from the Immune Epitope Database (IEDB)
